Assay: Drug concentration in serum and tissues by LC-MS, pharmacokinetics and BBB permeability
Assay type: in vivo, mice
Settings: C57BL/6, mouse, intravenous; 15 mg/kg i.v.; heart; 6 h; mean ± SD; read-out: concentration in heart
VALUE KIND: concentration at 6 h (ng/g)
Report only the number, with the unit ng/g understood.

Fill in: concentration at 6 h of `O=C(CCN1CCN(Cc2ccccc2)CC1)Nc1nc(-c2ccccc2)cs1` is ___
51.6

* * *

Test: Drug concentration in serum and tissues by LC-MS, pharmacokinetics and BBB permeability
Type: in vivo, mice
Details: C57BL/6, mouse, IL brain (ipsilateral ischemic hemisphere) / serum, iv; 15 mg/kg i.v.; IL brain; mean AUC0–6 h ratio; read-out: Kp (brain-serum ratio, AUCbrain/AUCserum)
Method: The mice were intravenously injected with 15 mg/kg TJ-5 at the time of reperfusion 1 h after MCAO or Sham. The mice were then anesthetized at 5 min, 10 min, 30 min, 1 h, and 2 h, or 6 h post-dosing. […] The time-concentration curve, area under the curve (AUC), and pharmacokinetic (PK) parameters of TJ-5 were analyzed using the PKslover 2.0 PK software ([Zhang et al., 2010]). BBB permeability was evaluated using the brain-to-serum partition coefficient (Kp), which was calculated as AUCbrain/AUCserum.
VALUE KIND: Kp
Respond numerically, and do not add a unit to the figure.

Looking for the measured Kp of O=C(CCN1CCN(Cc2ccccc2)CC1)Nc1nc(-c2ccccc2)cs1 [TJ-5] , can you help?
5.58

The measured values listed here are drawn from paper PMC9797592.
